assayTarget: human CYP17A1 (Homo sapiens, UniProt P05093)
Construct: made in house
Sequence (P05093 24-508 limits assumed): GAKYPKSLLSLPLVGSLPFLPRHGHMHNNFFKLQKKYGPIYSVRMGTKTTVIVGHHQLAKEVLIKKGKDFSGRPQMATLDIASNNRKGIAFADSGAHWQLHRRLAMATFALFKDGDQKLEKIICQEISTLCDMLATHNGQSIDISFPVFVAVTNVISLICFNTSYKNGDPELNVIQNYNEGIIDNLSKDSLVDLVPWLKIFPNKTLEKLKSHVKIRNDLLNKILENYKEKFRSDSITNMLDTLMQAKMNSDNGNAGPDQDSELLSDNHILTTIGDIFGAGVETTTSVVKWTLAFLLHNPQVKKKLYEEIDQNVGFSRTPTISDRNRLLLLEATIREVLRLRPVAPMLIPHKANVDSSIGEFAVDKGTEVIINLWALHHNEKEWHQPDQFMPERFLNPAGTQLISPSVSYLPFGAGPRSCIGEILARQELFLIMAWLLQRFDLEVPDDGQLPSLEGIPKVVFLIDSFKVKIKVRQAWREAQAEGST
methodNotes: Cytochrome P450 17A1 progesterone 17α-hydroxylation inhibition assay
Type: biochemical
experimentalSetup: recombinant purified CYP17A1
measure: pIC50
pIC50 (log units): -log10 of the concentration in mol/L.

Query string: Param readout= pIC50; system= human CYP17A1 (Homo sapiens, UniProt P05093); entry= c1ccc(Nc2ccc(-n3cnc4ccccc43)cc2)cc1 [Compound 1d] ; returns value.
Result string: 5.75

Query string: Then this compound: c1ccc2c(c1)ccn2-c1ccc(Nc2ccncc2)cc1 [Compound 1e]
Result string: 6.25

Query string: Then this compound: c1cncc(Nc2ccc(-n3cnc4ccccc43)cc2)c1 [Compound 1c]
Result string: 6.08
